B1: CPEB3 Ribozyme (parent)
chain: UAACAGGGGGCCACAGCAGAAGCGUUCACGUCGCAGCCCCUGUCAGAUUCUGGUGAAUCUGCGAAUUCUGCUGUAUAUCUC

variants of: B1; assay: self-cleavage, relative activity (ratio to wild type); higher = more cleavage; in vitro, sequencing
QUANTITY_NAME: self-cleavage

VARIANT_CODE: A2G A21C
self-cleavage: 0.11

Query :: Let me know recorded self-cleavage for G19C A35C , thanks.
Result :: 0.2

Query :: Quote self-cleavage reported for U58A C62U please.
Result :: 0.23

Query :: Entry A5C G63U needs its self-cleavage filled in; supply it.
Result :: 0.91

Query :: Annotate the variant U43C A47C with its measured self-cleavage.
Result :: 0.06

Query :: Please supply the value of reported self-cleavage for the item G19A U51A
Result :: 0.31

Query :: Return value of self-cleavage for input A13G C40U , no commentary.
Result :: 0.76
